normalised response values for the compounds below.
# Test system: HCC1143
# assay-overview: normalised response (% of control), CellTiter-Glo; higher = more viable cells (100 = DMSO, 0 = benzethonium chloride kill control)
# measurement-conditions: incubation time: 72 h
// note: answer is a bare numeric in %

>  <compound>
Cn1c(CCCC(=O)O)nc2cc(N(CCCl)CCCl)ccc21 [Bendamustine] (10 nM)

>  <normalised response (%)>
107

$$$$
>  <compound>
Cn1c(Nc2ccc(C(F)(F)F)cc2)nc2cc(Oc3ccnc(-c4ncc(C(F)(F)F)[nH]4)c3)ccc21 [RAF265] (100 nM)

>  <normalised response (%)>
95.9

$$$$
>  <compound>
C#Cc1cccc(Nc2ncnc3cc(OCCOC)c(OCCOC)cc23)c1 [Erlotinib] (10 nM)

>  <normalised response (%)>
106

$$$$

Record summary for CS(=O)(=O)c1ccc(C2=C(c3ccccc3)C(=O)OC2)cc1 [Rofecoxib] (1 nM) : reported normalised response = 110

* * *

# Test system: CAL-120
# assay-overview: drug sensitivity score (DSS), CellTiter-Glo (DSS (AUC-based score)); higher = stronger drug effect (viability inhibition or cytotoxicity); extreme values may be limits of the assay
# measurement-conditions: incubation time: 72 h
Each entry gets No if its drug sensitivity score stays under 2, and Yes if its drug sensitivity score is 2 or above.

>  <compound>
O=C(CCCCCCC(=O)Nc1ccc([C@H]2O[C@@H](CSc3nc(-c4ccccc4)c(-c4ccccc4)o3)C[C@@H](c3ccc(CO)cc3)O2)cc1)NO

>  <class>
Yes

$$$$
>  <compound>
CCCCCCCCCCCCCCCCCCOP(=O)([O-])OC1CC[N+](C)(C)CC1

>  <class>
No

$$$$
>  <compound>
CC(=O)Nc1ccc(C(=O)Nc2ccccc2N)cc1

>  <class>
No

$$$$

I'd appreciate it if you could say whether CCC1=C[C@@H]2CN(C1)Cc1c([nH]c3ccccc13)[C@@](C(=O)OC)(c1cc3c(cc1OC)N(C)[C@H]1[C@@](O)(C(=O)OC)[C@H](OC(C)=O)[C@]4(CC)C=CCN5CC[C@]31[C@@H]54)C2 has drug sensitivity score at least equal to 2.
Yes

I'd appreciate it if you could say whether Clc1ccc(Nc2nnc(Cc3ccncc3)c3ccccc23)cc1 has drug sensitivity score at least equal to 2.
No

I'd appreciate it if you could say whether CC1(C)NC(=O)N(c2ccc([N+](=O)[O-])c(C(F)(F)F)c2)C1=O [Nilutamide] has drug sensitivity score at least equal to 2.
No

I'd appreciate it if you could say whether CN[C@@H]1C[C@H]2O[C@@](C)([C@@H]1OC)n1c3ccccc3c3c4c(c5c6ccccc6n2c5c31)C(=O)N[C@H]4O has drug sensitivity score at least equal to 2.
Yes

I'd appreciate it if you could say whether C#Cc1cccc(Nc2ncnc3cc(OCCOC)c(OCCOC)cc23)c1 has drug sensitivity score at least equal to 2.
No

I'd appreciate it if you could say whether CC(C)Cn1cnc2c(N)nc3ccccc3c21 has drug sensitivity score at least equal to 2.
No

* * *

# System: CAL-85-1
# assay-overview: normalised viability (% of control), CellTiter-Blue; higher = more viable cells (about 100 = DMSO control)
# measurement-conditions: incubation time: 72 h
property-label: normalised viability (%)
// note: answer is a bare numeric in %

Look over these answered cases.
>  <compound>
CC(=O)Nc1ccc(C(=O)Nc2ccccc2N)cc1 [CI-994] (30 nM)

>  <property-label>
normalised viability

>  <numeric-value>
104

$$$$
>  <compound>
CN(C)/N=N/c1[nH]cnc1C(N)=O [Dacarbazine] (300 nM)

>  <property-label>
normalised viability

>  <numeric-value>
93.4

$$$$

Record summary for CC(C)Cn1cnc2c(N)nc3ccccc3c21 [Imiquimod] (300 nM) : reported normalised viability = 102

Record summary for NC(=O)Nc1cc(-c2cccc(F)c2)sc1C(=O)N[C@H]1CCCNC1 [AZD 7762] (30 nM) : reported normalised viability = 99.5

Record summary for CC1(C)NC(=O)N(c2ccc([N+](=O)[O-])c(C(F)(F)F)c2)C1=O [Nilutamide] (300 nM) : reported normalised viability = 104

* * *

# Tested on: MDA-MB-453
# assay-overview: normalised viability (% of control), CellTiter-Blue; higher = more viable cells (about 100 = DMSO control)
# measurement-conditions: 3 nM; incubation time: 72 h
normalised viability values for the compounds below.
// note: answer is a bare numeric in %

>  <compound>
CN(N=O)C(=O)N[C@@H](C=O)[C@@H](O)[C@H](O)[C@H](O)CO [Streptozocin]

>  <tested-system>
MDA-MB-453

>  <numeric-value>
116

$$$$

Per the reported MDA-MB-453 data, NC(=O)Nc1cc(-c2cccc(F)c2)sc1C(=O)N[C@H]1CCCNC1 [AZD 7762] has normalised viability of 93.2

Per the reported MDA-MB-453 data, N.N.[Cl][Pt][Cl] [Cisplatin] has normalised viability of 124

Per the reported MDA-MB-453 data, Cn1c(Nc2ccc(C(F)(F)F)cc2)nc2cc(Oc3ccnc(-c4ncc(C(F)(F)F)[nH]4)c3)ccc21 [RAF265] has normalised viability of 109

* * *

# Test system: MDA-MB-231
# assay-overview: drug sensitivity score (DSS), CellTiter-Glo (DSS (AUC-based score)); higher = stronger drug effect (viability inhibition or cytotoxicity); extreme values may be limits of the assay
# measurement-conditions: incubation time: 72 h
property-label: drug sensitivity score
Just the number.

>  <molecule>
O=C(CCCCCCC(=O)Nc1ccc([C@H]2O[C@@H](CSc3nc(-c4ccccc4)c(-c4ccccc4)o3)C[C@@H](c3ccc(CO)cc3)O2)cc1)NO

>  <tested-system>
MDA-MB-231

>  <drug sensitivity score>
6.83

$$$$

Per the reported MDA-MB-231 data, CN(N=O)C(=O)N[C@@H](C=O)[C@@H](O)[C@H](O)[C@H](O)CO has drug sensitivity score of 0

* * *

# Test system: MDA-MB-453
# assay-overview: normalised viability (% of control), CellTiter-Blue; higher = more viable cells (about 100 = DMSO control)
# measurement-conditions: incubation time: 72 h
property-label: normalised viability (%)
// note: answer is a bare numeric in %

Look over these answered cases.
>  <compound>
N.N.[Cl][Pt][Cl] [Cisplatin] (3000 nM)

>  <normalised viability / %>
100

$$$$
>  <compound>
COc1cc2nccc(Oc3ccc(NC(=O)C4(C(=O)Nc5ccc(F)cc5)CC4)cc3)c2cc1OC [Cabozantinib] (300 nM)

>  <normalised viability / %>
112

$$$$
>  <compound>
NC(=O)Nc1cc(-c2cccc(F)c2)sc1C(=O)N[C@H]1CCCNC1 [AZD 7762] (300 nM)

>  <normalised viability / %>
46.8

$$$$

# context switch: different compound, same normalised viability
Record summary for CO[C@H]1/C=C\C=C(/C)C(=O)NC2=CC(=O)C(NCCN(C)C)=C(C[C@@H](C)C[C@H](OC)[C@H](O)[C@@H](C)/C=C(\C)[C@@H]1OC(N)=O)C2=O [Alvespimycin] (300 nM) : reported normalised viability = 8.24

* * *

# System: MDA-MB-468
# assay-overview: drug sensitivity score (DSS), CellTiter-Blue viability (DSS (AUC-based score)); higher = stronger viability inhibition; extreme values may be limits of the assay
# measurement-conditions: incubation time: 72 h
Each entry gets false (0) if its drug sensitivity score stays under 3, and true (1) if its drug sensitivity score is 3 or above.

I'd appreciate it if you could say whether CN(C)/N=N/c1[nH]cnc1C(N)=O [Dacarbazine] has drug sensitivity score at least equal to 3.
false (0)

I'd appreciate it if you could say whether Cn1c(Nc2ccc(C(F)(F)F)cc2)nc2cc(Oc3ccnc(-c4ncc(C(F)(F)F)[nH]4)c3)ccc21 [RAF265] has drug sensitivity score at least equal to 3.
false (0)

I'd appreciate it if you could say whether Oc1nc(-c2ccc(C(F)(F)F)cc2)nc2c1CSCC2 [XAV-939] has drug sensitivity score at least equal to 3.
false (0)

I'd appreciate it if you could say whether Clc1ccc(Nc2nnc(Cc3ccncc3)c3ccccc23)cc1 [Vatalanib] has drug sensitivity score at least equal to 3.
false (0)

I'd appreciate it if you could say whether C[C@@H](Oc1cc(-c2cnn(C3CCNCC3)c2)cnc1N)c1c(Cl)ccc(F)c1Cl [Crizotinib] has drug sensitivity score at least equal to 3.
true (1)

I'd appreciate it if you could say whether Cn1c(CCCC(=O)O)nc2cc(N(CCCl)CCCl)ccc21 [Bendamustine] has drug sensitivity score at least equal to 3.
false (0)

I'd appreciate it if you could say whether CO[C@H]1/C=C\C=C(/C)C(=O)NC2=CC(=O)C(NCCN(C)C)=C(C[C@@H](C)C[C@H](OC)[C@H](O)[C@@H](C)/C=C(\C)[C@@H]1OC(N)=O)C2=O [Alvespimycin] has drug sensitivity score at least equal to 3.
true (1)

I'd appreciate it if you could say whether COc1cc([C@@H]2c3cc4c(cc3[C@@H](O[C@@H]3O[C@@H]5CO[C@@H](C)O[C@H]5[C@H](O)[C@H]3O)[C@H]3COC(=O)[C@H]23)OCO4)cc(OC)c1O [Etoposide] has drug sensitivity score at least equal to 3.
true (1)

I'd appreciate it if you could say whether N.N.[Cl][Pt][Cl] [Cisplatin] has drug sensitivity score at least equal to 3.
false (0)

I'd appreciate it if you could say whether CCC1(c2ccc(N)cc2)CCC(=O)NC1=O (configuration not stated) [Aminoglutethimide] has drug sensitivity score at least equal to 3.
false (0)

I'd appreciate it if you could say whether CC(=O)Nc1ccc(C(=O)Nc2ccccc2N)cc1 [CI-994] has drug sensitivity score at least equal to 3.
false (0)

I'd appreciate it if you could say whether NC(=O)Nc1cc(-c2cccc(F)c2)sc1C(=O)N[C@H]1CCCNC1 [AZD 7762] has drug sensitivity score at least equal to 3.
false (0)
